Test system: E. coli
TEST_DETAILS: Effect of additives added to thawed competent cells on electroporation efficiency (pCMV-Script plasmid)
Type: cell-based
TEST_PARAMETERS: additive final concentration 1.0%, added after thawing; colonies with additive divided by colonies without

# COMPOUND, Relative efficiency
data = [
    ("OC[C@@H](O)[C@@H](O)[C@H](O)[C@H](O)CO", 2.80),
    ("OC[C@H]1O[C@H](O[C@H]2[C@H](O)[C@@H](O)C(O)O[C@@H]2CO)[C@H](O)[C@@H](O)[C@@H]1O (mixture of isomers)", 1.50),
    ("O=C[C@H](O)[C@@H](O)[C@@H](O)[C@H](O)CO", 1.50),
    ("OC[C@@H](O)[C@@H](O)[C@H](O)[C@@H](O)CO", 2.80),
]
